# Target: T1, human IL-18BP (interleukin-18 binding protein, isoform A) (human, UniProt O95998 31-194)
# T1 sequence: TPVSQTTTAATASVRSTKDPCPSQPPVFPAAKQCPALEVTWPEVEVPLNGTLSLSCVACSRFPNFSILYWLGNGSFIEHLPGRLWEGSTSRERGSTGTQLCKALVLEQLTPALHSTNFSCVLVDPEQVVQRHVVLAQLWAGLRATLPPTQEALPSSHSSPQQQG
# Test Description: cell-based or functional assay
Entries whose EC50 in PBMC Assay 2 (precomplexed IL-18BP), IFNγ is below 0.9 nM take Yes; entries at or above 0.9 nM take No.

Binder: SA328a (antibody, human IgG1, V domains shown, humanized; human IgG1 (suffix a), kappa) VH: QVQLQESGPGLVKPSQTLSLTCTVSGYSITSDYNAHWIRQPPGKGLEWIGYIHYSGSTNYNPSLKSRVTISRDTSKNQFSLKLSSVTAADTAVYYCARNYGSIYVNYFDYWGQGTLVTVSS VL: EIVLTQSPATLSLSPGERATLSCSASSSVSYMYWYQQKPGQAPRPLIYRTSNLASGIPARFSGSGSGTDFTLTISSLEPEDFAVYYCQQYHSYVTFGGGTKVEIK
Group: No

## Input API: query returns whether the binder falls strictly under 0.9 nM in EC50 in PBMC Assay 2 (precomplexed IL-18BP), IFNγ. Query: SA338a (antibody, human IgG1, V domains shown, humanized; human IgG1 (suffix a), kappa) VH: QVQLQESGPGLVKPSQTLSLTCTVSGYSITQDYNAHWIRQPPGKGLEWIGYIHYSGQTYYNPSLKSRVTISRDTSKNQFSLKLSSVTAADTAVYYCARNFGSIYVNYFDYWGQGTLVTVSS VL: EIVLTQSPATLSLSPGERATLSCSASSSVSYMYWYQQKPGQAPRPLIYRTSNLASGIPARFSGSGSGTDFTLTISSLEPEDFAVYYCQLYHSYPTFGGGTKVEIK
## Output Yes

## Input Please give the result for SA337a (antibody, human IgG1, V domains shown, humanized; human IgG1 (suffix a), kappa) VH: QVQLQESGPGLVKPSQTLSLTCTVSGYSITQDYNAHWIRQPPGKGLEWIGYIHYSGQTNYNPSLKSRVTISRDTSKNQFSLKLSSVTAADTAVYYCARNYGSIYVNYFDYWGQGTLVTVSS VL: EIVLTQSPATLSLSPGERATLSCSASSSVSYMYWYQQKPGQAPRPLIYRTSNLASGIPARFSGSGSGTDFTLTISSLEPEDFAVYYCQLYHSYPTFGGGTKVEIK too.
## Output Yes

## Input Now give it for SA306a (antibody, human IgG1, V domains shown) VH: QVQLQESGPGLVKPSQTLSLTCTVSGYSITSDYNNHWIRQPPGKGLEWIGYIHYSGSTNYNPSLKSRVTISRDTSKNQFSLKLSSVTAADTAVYYCARNYGSIYVNYFDYWGQGTLVTVSS VL: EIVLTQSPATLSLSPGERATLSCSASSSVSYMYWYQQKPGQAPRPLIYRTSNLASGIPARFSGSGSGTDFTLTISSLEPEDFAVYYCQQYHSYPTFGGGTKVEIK too.
## Output No

## Input Further, for SA310a (antibody, human IgG1, V domains shown, humanized; human IgG1 (suffix a), kappa) VH: QVQLQESGPGLVKPSQTLSLTCTVSGYSITSDYNAHWIRQPPGKGLEWIGYIHYSGSTMYNPSLKSRVTISRDTSKNQFSLKLSSVTAADTAVYYCARNYGSIYVNYFDYWGQGTLVTVSS VL: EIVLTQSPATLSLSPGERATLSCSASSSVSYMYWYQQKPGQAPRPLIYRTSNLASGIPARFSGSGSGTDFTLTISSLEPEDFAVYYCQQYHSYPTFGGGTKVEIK ?
## Output No
